Documented melting point across a set of compounds

Please review the entries below; each comes with its answer.
• CN(C)c1cc2c(cc1C(F)(F)F)NC(=O)CC(c1cccc(-c3cocn3)c1)=N2 = 218 to 219 °C
• Cc1cc(-c2cc(C3=Nc4cc(N(C)C)c(Cl)cc4NC(=O)C3)ccn2)on1 = > 250 °C
• Cc1cc2c(cc1N(C)CC(C)C)N=C(c1cccc(-n3nncc3CNCC3CC3)c1)CC(=O)N2 = 184 °C
• CCNc1nc(-c2cccc(C3=Nc4cc(N(C)C)c(Cl)cc4NC(=O)C3)c2)cs1 = 122 to 123 °C

Recorded result, `O=C1CC(c2cccc(-n3nncc3CO)c2)=Nc2cc(N3CCC3)c(C(F)(F)F)cc2N1` , melting point: 202 °C (dec.)

Recorded result, `Cc1cc(-c2cccc(C3=Nc4cc(OCC(F)(F)F)c(-c5ccccc5F)cc4NC(=O)C3)c2)on1` , melting point: 218 to 220 °C

Recorded result, `CCCN(C)c1cc2c(cc1Cl)NC(=O)CC(c1cccc(-c3coc(C)n3)c1)=N2` , melting point: 163 to 164 °C

Recorded result, `CN(C)c1cc2c(cc1Cl)NC(=O)CC(c1ccnc(C#N)c1)=N2` , melting point: 216 °C
